- method.description: chemical genetic growth profiling, strain panel (AID 1159580);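 also: tested at 20 µM; growth read once vehicle control cultures reached saturation at 30 °C; 1 = growth at the plate median or of vehicle wells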
- condition.info: S. cerevisiae deletion strains, growth OD, locus YMR205C, strain PFK2, stronger effect = lower value
About 2,000 (36%) of roughly 5,500 compounds were called active. About 18% were inconclusive and are not listed. Some of the results follow.
// boundary case: normalized growth equal to 1 maps to 0.0; strictly smaller maps to 1.0

Before answering, review these 10 worked examples.
Incoming: Hello, is normalized growth of the following compound strictly smaller than 1? "CCOC(=O)c1c(C)cc(O)c(C=O)c1O"
Outgoing: 1.0

Incoming: Lab note: normalized growth threshold 1. Does this compound come in strictly under it? "CC(C)c1c(C(=O)c2ccccc2)c(-c2ccccc2)c(-c2ccc(F)cc2)n1CC[C@@H](O)C[C@@H](O)CC(=O)O"
Outgoing: 1.0

Incoming: Threshold test, normalized growth < 1: "CN(C)c1ccc(C(=C2C=CC(=[N+](C)C)C=C2)c2ccc(N(C)C)cc2)cc1"
Outgoing: 1.0

Incoming: Lab note: normalized growth threshold 1. Does this compound come in strictly under it? "CC1=C(/C=C/C(C)=C/C=C/C(C)=C/C=C/C=C(C)/C=C/C=C(C)/C=C/C2=C(C)C(=O)CCC2(C)C)C(C)(C)CCC1=O"
Outgoing: 1.0

Incoming: # TODO verify normalized growth < 1 strictly for this compound: "CCOC(=O)C(C)(C)Oc1ccc(Cl)cc1"
Outgoing: 1.0

Incoming: Bench note: check whether CCOC(=O)C(=O)C1(C(=O)OCC)Oc2cc(OC)cc(OC)c2C(=O)C1c1ccccc1 (stereo unspecified) shows normalized growth below 1
Outgoing: 1.0

Incoming: In plain terms, does CC1=C(/C=C/C(C)=C/C=C/C(C)=C/C=C/C=C(C)/C=C/C=C(C)/C=C/C2=C(C)C(=O)C(O)CC2(C)C)C(C)(C)CC(O)C1=O (stereo unspecified) come in under 1 for normalized growth?
Outgoing: 0.0

Incoming: In the record for CCCCCCCCNC(C)C(O)c1ccc(SC(C)C)cc1 (stereo unspecified) , is normalized growth less than 1?
Outgoing: 1.0

Incoming: Strictly below 1: is that where normalized growth of "COc1ccc2c(c1)O[C@@H]1COc3cc(OC)c(OC)cc3[C@@H]1C2=O" sits?
Outgoing: 1.0

Incoming: Is the reported normalized growth for "NC(=O)c1ccc[n+]([C@@H]2O[C@H](COP(=O)([O-])OP(=O)(O)OC[C@H]3O[C@@H](n4cnc5c(N)ncnc54)[C@H](O)[C@@H]3O)[C@@H](O)[C@H]2O)c1" strictly below 1?
Outgoing: 0.0

Further cases:
Incoming: is_below(normalized growth, 1) for "CCCCCCCCCCCCCCCC[N+](C)(C)C" ?
Outgoing: 1.0

Incoming: Is normalized growth strictly under 1 for the entry NC(=O)C(c1ccccc1)(c1ccccc1)C1CCN(CCc2ccc3c(c2)CCO3)C1 (stereo unspecified) ?
Outgoing: 0.0

Incoming: Take the compound C=C(C)C1CNC(C(=O)O)C1CC(=O)O (stereo unspecified) and say whether its normalized growth is less than 1.
Outgoing: 1.0

---

- method.description: chemical genetic growth profiling, strain panel (AID 1159580)
- condition.info: S. cerevisiae deletion strains, growth OD, locus YOR083W, strain WHI5, stronger effect = lower value
Screen size: about 5,500 compounds; about 2,000 (36%) were called active. Not shown: some 18% with an inconclusive outcome. This is one part of the list.
measured.endpoint: normalized growth
Form field (numeric): enter value without unit.

Incoming: What measured normalized growth goes with "CC(C)OC(=O)C(C)(C)Oc1ccc(C(=O)c2ccc(Cl)cc2)cc1" ?
Outgoing: 0.996

Incoming: Dear colleague, I am looking for the recorded normalized growth of the following compound: "CN1CCC(=C2c3ccccc3CCc3sccc32)CC1"
Outgoing: 0.913

Incoming: Bench note: what normalized growth did NC(=O)C(c1ccccc1)(c1ccccc1)C1CCN(CCc2ccc3c(c2)CCO3)C1 (centres undefined) show?
Outgoing: 1

Turning to the following compound.
Incoming: Query (compound): "CN1CCC(=C2c3ccccc3CC(=O)c3sccc32)CC1" ; field requested: normalized growth
Outgoing: 0.962

---

- method.description: chemical genetic growth profiling, strain panel (AID 1159580)
- condition.info: S. cerevisiae deletion strains, growth OD, locus YOR106W, strain vam3, stronger effect = lower value
The campaign covered roughly 5,500 compounds. About 2,000 (36%) were called active. Inconclusive results (about 18%) are left out. The list shows a part of the results.
measured.endpoint: normalized growth
API note: the answer field is a bare number with no unit suffix.

Incoming: Which normalized growth value belongs to "C[N+](C)(C)CCOC(N)=O" ?
Outgoing: 1.01

Continuing:
Incoming: Recorded normalized growth of "O=C(O)c1cc2ccccc2c(Cc2c(O)c(C(=O)O)cc3ccccc23)c1O" , please.
Outgoing: 0.976

Incoming: Return reported normalized growth; argument: "O=C(O)c1cc2ccccc2[nH]1"
Outgoing: 0.972

Incoming: I have this compound here, "CC1=C(/C=C/C(C)=C/C=C/C(C)=C/C=C/C=C(C)/C=C/C=C(C)/C=C/C2=C(C)C(=O)CCC2(C)C)C(C)(C)CCC1=O" , and I need its recorded normalized growth.
Outgoing: 0.986

Incoming: Item under review: C=C1C2CC[C@H]3[C@]4(C)C[C@H](OC5OC(CO)C(OS(=O)(=O)O)C(OS(=O)(=O)O)C5OC(=O)CC(C)C)C[C@@H](C(=O)O)[C@H]4CC[C@]3(C2)[C@H]1O (stereo not given in full) . Reported normalized growth?
Outgoing: 0.991

---

- method.description: chemical genetic growth profiling, strain panel (AID 1159580)
- condition.info: S. cerevisiae deletion strains, growth OD, locus YAR019C, strain CDC15, stronger effect = lower value
The whole screen tested about 5,500 compounds, of which about 2,000 (36%) were called active. Another 18% or so got no clear call; they are omitted. The list shows a part of the results.
measured.endpoint: normalized growth
Answer with a bare number; do not write a unit.

Example entries begin here.
Incoming: // normalized growth lookup, key: "Cc1cc(NNC(=O)c2ccccc2Cl)nc2c1c(C)nn2C"
Outgoing: 0.994

Incoming: What value of normalized growth has been reported for the following compound? CS(=NC(=O)c1cccc(Cl)c1)c1ccc(OC(=O)c2ccc(Cl)cc2)cc1 (centres undefined)
Outgoing: 0.969

Incoming: Endpoint output: normalized growth of "CC(C)(C)CN/C(C#N)=C(/C#N)NCc1cccc(Cl)c1" . Value?
Outgoing: 0.993

Next, consider the following compound.
Incoming: For "Cc1nnsc1C(=O)Nc1cc(C(F)(F)F)cc(C(F)(F)F)c1" , what is its reported normalized growth?
Outgoing: 0.956

---

- method.description: chemical genetic growth profiling, strain panel (AID 1159580);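 also: tested at 20 µM; growth read once vehicle control cultures reached saturation at 30 °C; 1 = growth at the plate median or of vehicle wells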
- condition.info: S. cerevisiae deletion strains, growth OD, locus YAL013W, strain DEP1, stronger effect = lower value
Among all 5,500 compounds or so, about 2,000 (36%) were called active. Not shown: some 18% with an inconclusive outcome. Some of the results follow.
measured.endpoint: normalized growth
# print the numeric value only

Incoming: // returns reported normalized growth for input CC(=O)OCC(=O)[C@H]1CCC2C3CCC4=CC(=O)CC[C@]4(C)C3CC[C@@]21C (stereo partly drawn)
Outgoing: 0.886

Moving on to another compound below.
Incoming: I'd like to know its normalized growth. The compound in question is CCN(CC)CCCC(C)Nc1c2ccc(Cl)cc2nc2ccc(OC)cc12 (stereo not drawn)
Outgoing: 0.992

---

- method.description: chemical genetic growth profiling, strain panel (AID 1159580);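 also: tested at 20 µM; growth read once vehicle control cultures reached saturation at 30 °C; 1 = growth at the plate median or of vehicle wells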
- condition.info: S. cerevisiae deletion strains, growth OD, locus YDR195W, strain ref2
The campaign covered roughly 5,500 compounds. About 2,000 (36%) were called active. Roughly 18% stayed inconclusive and do not appear here. Cut-off read from the data, not from the text of the source: active = normalized growth mostly below about 0.91 (no sharp cut-off); inconclusive = no clear call, values can overlap the other calls; inactive = mostly above about 0.92. Some of the results follow.
Parameter call: string, one of active, inactive

Reference set (5 entries):
Incoming: Lab log entry: "COc1ccc2c3c1O[C@H]1C[C@@H](O)C=C[C@@]31CCN(C)C2" — outcome as called in the assay?
Outgoing: inactive

Incoming: State the result this test recorded for "O=C(O)c1cc2ccccc2c(Cc2c(O)c(C(=O)O)cc3ccccc23)c1O" .
Outgoing: inactive

Incoming: Record lookup: outcome of this test for CC1=C(C(C)O)C2=NC1C=c1[nH]c(c(C)c1C(C)O)=Cc1[nH]c(c(CCC(=O)O)c1C)C=c1[nH]c(c(C)c1CCC(=O)O)=C2 (stereo unspecified) ?
Outgoing: inactive

Incoming: Tell me the assay call for OCCN1C[C@@H](O)[C@@H](O)C(O)C1CO (stereo partly specified) please.
Outgoing: inactive

Incoming: Lab log entry: CCN(CC)CCCC(C)Nc1ccnc2cc(Cl)ccc12 (stereo unspecified) — outcome as called in the assay?
Outgoing: inactive

Query compound follows.
Incoming: Dear colleague, could you share the recorded outcome for "CC(C)c1c(C(=O)c2ccccc2)c(-c2ccccc2)c(-c2ccc(F)cc2)n1CC[C@@H](O)C[C@@H](O)CC(=O)O" when you have a moment?
Outgoing: inactive

---

- method.description: chemical genetic growth profiling, strain panel (AID 1159580);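 also: tested at 20 µM; growth read once vehicle control cultures reached saturation at 30 °C; 1 = growth at the plate median or of vehicle wells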
- condition.info: S. cerevisiae deletion strains, growth OD, locus YPR141C, strain kar3, stronger effect = lower value
Out of some 5,500 compounds screened, about 2,000 (36%) were called active. About 18% were inconclusive and are not listed. The list shows a part of the results.
# fulfilled = normalized growth below 1 (exclusive); not fulfilled = normalized growth at/above 1

Incoming: Is 1 strictly greater than the compound's reported normalized growth? compound: "CC1(C)OC(=O)NC1=O"
Outgoing: fulfilled
